Entry source: paper PMC4136418

Assay: Transport across Caco-2 cell monolayers
Type: in vitro ADME, human
Conditions: human, Caco-2, Papp (a–b), 25 μg/ml, apical pH 5.5, basolateral pH 7.4
endpointLabel: Papp A→B at 2 h, 25 μg/ml

smilesStr | reportedMeasurement
C#C[C@]1(CO)O[C@@H](n2cnc3c(N)nc(F)nc32)C[C@@H]1O | 0.367 ×10⁻⁶ cm/s

* * *

Test: Human ectocervical tissue permeability study
Assay type: in vitro ADME
Conditions: female, human, pH 7.4

compound | Papp at 6 h, 500 μg/ml
C#C[C@]1(CO)O[C@@H](n2cnc3c(N)nc(F)nc32)C[C@@H]1O [EFdA, 4′-Ethynyl-2-fluoro-2′-deoxyadenosine] | 0.834 ×10⁻⁶ cm/s

* * *

Assay: Solubility in buffers, Vaginal Fluid Simulant and organic solvents
Type: physicochemical
Conditions: acid phthalate buffer, pH 4
endpointLabel: solubility at 120 h (µg/mL)

compound | reportedMeasurement
C#C[C@]1(CO)O[C@@H](n2cnc3c(N)nc(F)nc32)C[C@@H]1O [EFdA, 4′-Ethynyl-2-fluoro-2′-deoxyadenosine] | 1360

* * *

Experiment: Solubility in buffers, Vaginal Fluid Simulant and organic solvents
Format: physicochemical
Conditions: acid phthalate buffer, pH 3

smilesStr | uom | solubility at 120 h
C#C[C@]1(CO)O[C@@H](n2cnc3c(N)nc(F)nc32)C[C@@H]1O | µg/mL | 1510

* * *

Assay: Transport across Caco-2 cell monolayers
Format: in vitro ADME, human
Conditions: human, Caco-2, pH 7.4, Papp (a–b), 250 μg/ml, pH 7.4 both sides

molecule | Papp A→B at 2 h, 250 μg/ml [×10⁻⁶ cm/s]
C#C[C@]1(CO)O[C@@H](n2cnc3c(N)nc(F)nc32)C[C@@H]1O [EFdA, 4′-Ethynyl-2-fluoro-2′-deoxyadenosine] | 0.595

* * *

Experiment: Solubility in buffers, Vaginal Fluid Simulant and organic solvents
Assay type: physicochemical
Settings: PBS, pH 6

smilesStr | solubility at 120 h
C#C[C@]1(CO)O[C@@H](n2cnc3c(N)nc(F)nc32)C[C@@H]1O | 799 µg/mL

* * *

Assay: Solubility in buffers, Vaginal Fluid Simulant and organic solvents
Assay type: physicochemical
Details: acid phthalate buffer, pH 4, aqueous buffer, thermodynamic from solid

smilesStr | solubility at 120 h
C#C[C@]1(CO)O[C@@H](n2cnc3c(N)nc(F)nc32)C[C@@H]1O | 1620 µg/mL

* * *

Assay: In vitro cytotoxicity, MTT assay, CaSki cells
Assay type: cell-based
Settings: human
endpointLabel: CC50 at 72 h (µg/mL)

smilesStr | endpointLabel | reportedMeasurement
C#C[C@]1(CO)O[C@@H](n2cnc3c(N)nc(F)nc32)C[C@@H]1O | CC50 at 72 h | 41.1

* * *

Assay: In vitro cytotoxicity, MTT assay, CaSki cells
Assay type: cell-based
Details: human
endpointLabel: CC50 at 48 h

smilesStr | endpointLabel | reportedMeasurement
C#C[C@]1(CO)O[C@@H](n2cnc3c(N)nc(F)nc32)C[C@@H]1O | CC50 at 48 h | 47.8 µg/mL

* * *

Experiment: Solubility in buffers, Vaginal Fluid Simulant and organic solvents
Type: physicochemical
Conditions: Vaginal Fluid Simulant, pH 4.2

smilesStr | solubility [µg/mL]
C#C[C@]1(CO)O[C@@H](n2cnc3c(N)nc(F)nc32)C[C@@H]1O | 887

* * *

Test: Transport across Caco-2 cell monolayers
Assay type: in vitro ADME, human
Conditions: human, Caco-2, Papp (a–b), 25 μg/ml, apical pH 6.5, basolateral pH 7.4
endpointLabel: Papp A→B at 2 h, 25 μg/ml (×10⁻⁶ cm/s)

smilesStr | reportedMeasurement
C#C[C@]1(CO)O[C@@H](n2cnc3c(N)nc(F)nc32)C[C@@H]1O | 0.436
